Reference for the values: patent US20240343704A1

- study-system: Recombinant (1-346) HPK1 (h) (Homo sapiens, UniProt Q92918)
- Construct: Recombinant (1-346) HPK1 (h) is incubated with 8 mM MOPS pH 7.0
- Sequence (Q92918 1-346): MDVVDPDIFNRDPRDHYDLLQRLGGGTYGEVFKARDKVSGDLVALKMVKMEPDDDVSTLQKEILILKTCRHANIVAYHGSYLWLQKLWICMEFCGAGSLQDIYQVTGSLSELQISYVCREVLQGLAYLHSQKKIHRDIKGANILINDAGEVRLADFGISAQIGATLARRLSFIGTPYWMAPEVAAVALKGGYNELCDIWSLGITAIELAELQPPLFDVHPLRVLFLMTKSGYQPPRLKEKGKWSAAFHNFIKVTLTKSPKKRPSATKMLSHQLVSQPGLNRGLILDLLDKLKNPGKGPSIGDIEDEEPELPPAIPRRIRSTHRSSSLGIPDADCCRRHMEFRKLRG
- assay-notes: HPK1 Human STE Kinase Enzymatic Radiometric Assay
- Format: biochemical
- run-conditions: read-out: HPK1 IC50 nM Range*
- Experimental: A stock solution of 10 mM of test compound is prepared in DMSO. The compound plate was prepared by 3-fold and 9-point serial dilutions. […] The reaction is initiated by The addition of the Mg/ATP mix. After incubation for 40 minutes at RT, the reaction is stopped by the addition of phosphoric acid to a concentration of 0.5%.
Counter-ions that a name gives are not always drawn.
Give IC50 for every item shown.

[[record]]
compound = "CC(C)N1CCC(Oc2ccc(-c3cc(-c4ccc5c(c4)CCNC5=O)c(N)nc3F)cc2F)CC1 [I-268]"
parameter_measured = "IC50"
observed_value = "0.1 to 10 nM"

[[record]]
compound = "Nc1nc(F)c(-c2ccc(N3CCN(CC4CC4)CC3)cc2)cc1-c1cc2c(cn1)C(=O)NCC2 [I-400]"
parameter_measured = "IC50"
observed_value = "0.1 to 10 nM"


Batch: IC50 for all items listed.
1. Nc1nc(Cl)c(-c2ccc(N3CCN(CC(F)F)CC3)cc2)cc1-c1ccc2c(c1)CCNC2=O [I-168]
2. CC(C)N1CC(Oc2ccc(-c3cc(-c4ccc5c(c4)CCNC5=O)c(N)nc3F)cc2)C1 [I-288]

1. 11 to 100 nM
2. 0.1 to 10 nM

Batch: IC50 for all items listed.
1. COc1cc(OC2CCN(C(C)=O)CC2)ccc1-c1cc(-c2ccc3c(c2)CCNC3=O)c(N)nc1F [I-304]
2. Cc1nc2cc(-c3cc(-c4ccc(N5CCN(C(C)C)CC5)cc4)c(F)nc3N)ccc2c(=O)[nH]1 [I-409]
3. Nc1nc(F)c(-c2ccc(C3CCCCN3C3COC3)cc2)cc1-c1ccc2c(c1)CCNC2=O (centres unmarked) [I-153]
4. CN(C)Cc1cc(-c2cc(-c3ccc4c(c3)CCNC4=O)c(N)nc2F)ccc1C1CCOCC1 [I-645]
5. Cc1nc2cc(-c3cc(-c4ccc(N5CCN(C(C)C)CC5)cc4)c(F)nc3N)c(F)cc2c(=O)[nH]1 [I-439]

1: 0.1 to 10 nM; 2: 0.1 to 10 nM; 3: 11 to 100 nM; 4: 0.1 to 10 nM; 5: 11 to 100 nM

Batch: IC50 for all items listed.
1. C[C@@H]1CN(c2cc(F)c(-c3cc(-c4ccc5c(c4)CCNC5=O)c(N)nc3F)cc2[N+](=O)[O-])C[C@H](C)N1C [I-250, formate]
2. Nc1nc(F)c(-c2ccc(N3CCN(CC4CC4(F)F)CC3)cc2)cc1-c1ccc2c(c1)CCNC2=O (centres unmarked) [I-640]
3. CCN1CCC(c2ccc(-c3cc(-c4ccc5c(c4)CCNC5=O)c(N)nc3F)cc2)C1 (centres unmarked) [I-235]
4. CN1CCN(c2ccc(-c3cc(-c4cc5c(cc4F)C(=O)NCC5)c(N)nc3F)cc2C(F)(F)F)CC1 [I-249]
5. CC(C)N(C)Cc1cc(-c2cc(-c3ccc4c(c3)CCNC4=O)c(N)nc2F)ccc1N1CCOCC1 [I-614]
6. CN(C)Cc1cc(-c2cc(-c3ccc4c(c3)CCNC4=O)c(N)nc2F)ccc1N1CCOCC1 [I-432]

1. 11 to 100 nM
2. 0.1 to 10 nM
3. 0.1 to 10 nM
4. 0.1 to 10 nM
5. 11 to 100 nM
6. 0.1 to 10 nM

* * *

- study-system: Lck (h) (Homo sapiens, UniProt P06239)
- Sequence (P06239 whole entry): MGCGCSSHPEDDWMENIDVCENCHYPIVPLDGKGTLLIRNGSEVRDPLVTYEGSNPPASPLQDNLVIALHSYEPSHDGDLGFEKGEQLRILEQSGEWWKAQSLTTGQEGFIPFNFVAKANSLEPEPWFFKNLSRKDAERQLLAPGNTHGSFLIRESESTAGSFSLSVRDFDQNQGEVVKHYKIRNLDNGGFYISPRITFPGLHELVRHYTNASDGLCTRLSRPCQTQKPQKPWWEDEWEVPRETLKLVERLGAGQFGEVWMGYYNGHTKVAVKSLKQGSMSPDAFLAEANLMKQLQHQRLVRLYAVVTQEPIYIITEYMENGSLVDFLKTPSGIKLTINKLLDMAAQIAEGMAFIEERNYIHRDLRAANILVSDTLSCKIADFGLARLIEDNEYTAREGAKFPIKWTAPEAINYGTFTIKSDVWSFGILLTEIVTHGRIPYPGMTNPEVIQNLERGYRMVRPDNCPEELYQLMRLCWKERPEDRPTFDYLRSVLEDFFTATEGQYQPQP
- assay-notes: Lck Human  Kinase Enzymatic Radiometric Assay
- Assay type: biochemical
- run-conditions: read-out: Lck IC50 nM Range*
Give IC50 for every item shown.

# annotated cases, reported IC50 shown
[[record]]
compound_smiles = "CC(C)[C@H]1CN(c2ccc(-c3cnc(N)c(-c4ccc5c(c4)CCNC5=O)c3F)cc2)CCO1"
parameter_measured = "IC50"
observed_value = "> 1000 nM"

[[record]]
compound_smiles = "Nc1nc(F)c(-c2ccc(OC3CCNCC3)c(F)c2F)cc1-c1ccc2c(c1)CCNC2=O"
parameter_measured = "IC50"
observed_value = "> 1000 nM"

[[record]]
compound_smiles = "CC(C)N1CCN(c2ccc(-c3cc(-c4cc(F)c5c(=O)[nH]ccc5c4)c(N)nc3F)cc2)CC1"
parameter_measured = "IC50"
observed_value = "101 to 1000 nM"


Note to self: IC50 recorded for `CN1CCCN(S(=O)(=O)c2ccc(-c3cc(-c4ccc5c(c4)CCNC5=O)c(N)nc3F)cc2)CC1` was > 1000 nM

* * *

- study-system: Recombinant (1-346) HPK1 (h) (Homo sapiens, UniProt Q92918)
- Construct: Recombinant (1-346) HPK1 (h) is incubated with 8 mM MOPS pH 7.0
- assay-notes: HPK1 Human STE Kinase Enzymatic Radiometric Assay
- Assay type: biochemical
- run-conditions: read-out: HPK1 IC50 nM Range*
Where a name gives a salt, the structure may show the parent alone.
parameter-measured: IC50

[[record]]
compound = "CN(C)Cc1cc(-c2cc(-c3ccc4c(c3)CCNC4=O)c(N)nc2F)ccc1C1CCOC1 (stereo not shown)"
parameter_measured = "IC50"
observed_value = "0.1 to 10 nM"

[[record]]
compound = "Nc1nc(F)c(-c2ccc(C3=CCN(CCO)C3)cc2)cc1-c1ccc2c(c1)CCNC2=O"
parameter_measured = "IC50"
observed_value = "0.1 to 10 nM"

[[record]]
compound = "CO[C@H]1CCN(c2ccc(-c3cc(-c4ccc5c(c4)CCNC5=O)c(N)nc3F)cc2)C1"
parameter_measured = "IC50"
observed_value = "0.1 to 10 nM"


Batch: IC50 for all items listed.
1. Nc1nc(F)c(-c2cccc(CN3CCNCC3)c2)cc1-c1ccc2c(c1)CCNC2=O [I-265, formate]
2. CC(C)N1CCc2cc(-c3cc(-c4ccc5c(c4)CCNC5=O)c(N)nc3F)nn2CC1=O
3. Nc1nc(F)c(-c2ccc(N3CCOCC3)c(CN3CCCCC3)c2)cc1-c1cc2c(cc1F)C(=O)NCC2
4. CN(C)Cc1cc(-c2cc(-c3cc4c(cc3F)C(=O)NCC4)c(N)nc2F)ccc1N1CCSCC1
5. C[C@H]1CN(c2ccc(-c3cc(-c4ccc5c(c4)CCNC5=O)c(N)nc3F)cc2CN2CCC2)CCO1
6. CC(C)N1CCN(c2ccc(-c3cc(-c4ccc5c(=O)[nH]c(C6CCC6)nc5c4)c(N)nc3F)cc2)CC1
7. Cc1c[nH]c(=O)c2ccc(-c3cc(-c4ccc(N5CCN(CC6CC6)CC5)cc4)c(F)nc3N)cc12

11 to 100 nM
11 to 100 nM
11 to 100 nM
0.1 to 10 nM
11 to 100 nM
101 to 1000 nM
0.1 to 10 nM

Batch: IC50 for all items listed.
1. CC(C)[C@H]1CN(c2ccc(-c3cc(-c4ccc5c(c4)CCNC5=O)c(N)nc3F)cc2C(F)(F)F)CCO1
2. CN1CCN(c2ccc(-c3cc(-c4cc5c(cc4F)C(=O)NCC5)c(N)nc3F)c(Cl)c2)CC1
3. COCCN1CCC(c2ccc(-c3cc(-c4cc5c(cc4F)C(=O)NCC5)c(N)nc3F)cc2)CC1
4. COCCN1CCCC(c2ccc(-c3cc(-c4ccc5c(c4)CCNC5=O)c(N)nc3F)cc2)C1 (stereo not shown)
5. CC(C)N1CCC2(CC1)CC(=O)c1cc(-c3cc(-c4ccc5c(c4)CCNC5=O)c(N)nc3F)ccc1O2

["11 to 100 nM", "0.1 to 10 nM", "0.1 to 10 nM", "0.1 to 10 nM", "0.1 to 10 nM"]

Note to self: IC50 recorded for `CC(C)N1CC=C(c2ccc(-c3cc(-c4ccc5c(c4)CCNC5=O)c(N)nc3F)cc2)C1` was 0.1 to 10 nM

* * *

- study-system: Recombinant (1-346) HPK1 (h) (Homo sapiens, UniProt Q92918)
- Construct: Recombinant (1-346) HPK1 (h) is incubated with 8 mM MOPS pH 7.0
- assay-notes: HPK1 Human STE Kinase Enzymatic Radiometric Assay
- Format: biochemical
- run-conditions: read-out: HPK1 IC50 nM Range*
parameter-measured: IC50

# annotated cases, reported IC50 shown
[[record]]
compound = "Nc1nc(F)c(-c2ccc(N3CCC4(CC3)CN(C3CCC3)C4)cc2)cc1-c1cc2c(cc1F)C(=O)NCC2"
study_system = "Recombinant (1-346) HPK1 (h) (Homo sapiens, UniProt Q92918)"
observed_value = "0.1 to 10 nM"

[[record]]
compound = "Nc1nc(F)c(-c2ccc([C@@]34C[C@@H]3CN(CC(F)F)C4)cc2)cc1-c1ccc2c(c1)CCNC2=O"
study_system = "Recombinant (1-346) HPK1 (h) (Homo sapiens, UniProt Q92918)"
observed_value = "11 to 100 nM"

[[record]]
compound = "CCN(C)Cc1nc(-c2cc(-c3cc4c(cc3F)C(=O)NCC4)c(N)nc2F)ccc1N1CCOCC1"
study_system = "Recombinant (1-346) HPK1 (h) (Homo sapiens, UniProt Q92918)"
observed_value = "0.1 to 10 nM"

[[record]]
compound = "CCN1C[C@H]2C[C@@]2(c2ccc(-c3cc(-c4ccc5c(c4)CCNC5=O)c(N)nc3F)cc2)C1"
study_system = "Recombinant (1-346) HPK1 (h) (Homo sapiens, UniProt Q92918)"
observed_value = "0.1 to 10 nM"

[[record]]
compound = "CC(C)N1CCN(c2ccc(-c3cc(-c4cc(F)c5c(c4)OCCNC5=O)c(N)nc3F)cc2)CC1"
study_system = "Recombinant (1-346) HPK1 (h) (Homo sapiens, UniProt Q92918)"
observed_value = "0.1 to 10 nM"


Batch: IC50 for all items listed.
1. COCCN1CC=C(c2ccc(-c3cc(-c4ccc5c(c4)CCNC5=O)c(N)nc3F)cc2)CC1
2. CC(C)[C@H]1CN(c2ccc(-c3cc(-c4ccc5c(c4)CCNC5=O)c(N)nc3Cl)cc2)CCO1
3. CN(C)CC1Cc2cc(-c3cc(-c4ccc(N5CCOCC5)cc4)c(F)nc3N)ccc2C(=O)N1 (centres unmarked)
4. Nc1nc(F)c(-c2ccc(N3CCN(CCC(F)F)CC3)cc2)cc1-c1ccc2c(c1)CCNC2=O
5. CC(C)N1CCN(c2ccc(-c3cc(-c4ccc5c(c4)CCNC5=O)c(N)nc3F)c(F)c2F)CC1

0.1 to 10 nM
101 to 1000 nM
11 to 100 nM
0.1 to 10 nM
0.1 to 10 nM
